Measured Ki of individual entries
- MEASURED TARGET: UniProt:Q9UKP6
- Sequence (Q9UKP6 whole entry): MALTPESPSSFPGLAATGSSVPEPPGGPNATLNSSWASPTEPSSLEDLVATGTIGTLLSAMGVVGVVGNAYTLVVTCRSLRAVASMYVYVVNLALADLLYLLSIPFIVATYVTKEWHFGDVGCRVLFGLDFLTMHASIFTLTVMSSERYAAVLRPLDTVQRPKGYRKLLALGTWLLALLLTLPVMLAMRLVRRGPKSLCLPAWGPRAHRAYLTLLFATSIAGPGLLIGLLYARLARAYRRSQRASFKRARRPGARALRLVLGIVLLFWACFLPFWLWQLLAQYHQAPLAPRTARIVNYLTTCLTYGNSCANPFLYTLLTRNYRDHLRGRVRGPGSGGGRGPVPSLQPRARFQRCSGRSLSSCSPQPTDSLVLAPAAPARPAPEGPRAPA
- ASSAY COMMENT: hUTII inhibition constant
- Assay type: binding
- TEST CONDITIONS: read-out: hUTII Ki
Bridge positions count the residues as written; N and C are the ends. Square brackets hold non-standard residues; d marks the D form. Peptide text beside a SMILES is read from it. * marks the point of attachment. X2 = CN1C[C@H](CSCC(=O)*)C[C@@H]2c3cccc4[nH]cc(c34)C[C@H]21; Abu = CC[C@H](N)C(=O)O
Unit nM implied. Number only.

Some compounds with recorded Ki:
Task item: Identify the measured Ki of CC[C@@H]1NC(=O)[C@H](CCCCN)NC(=O)[C@@H](Cc2c[nH]c3ccccc23)NC(=O)[C@H](Cc2ccc(O)cc2)NC(=O)[C@@H](NC(=O)[C@@H](Cc2ccc(O)cc2)NC(=O)[C@@H](Cc2ccc(O)cc2)NC(=O)[C@H](CCCCN)NC(=O)CSC[C@@H]2C[C@@H]3c4cccc5[nH]cc(c45)C[C@H]3N(C)C2)CSSC[C@@H](C(=O)N[C@H](C(N)=O)[C@@H](C)O)NC1=O [Example 33] (X2-K[dY][dY]CY[dW]K[Abu]CT-NH2; disulfide 4-9) for UniProt:Q9UKP6.
Reply: 37.7

Task item: Identify the measured Ki of CCCN1C[C@H](CSCC(=O)NCCCC[C@@H](NC(C)=O)C(=O)N[C@H](Cc2ccccc2)C(=O)N[C@H]2CSSC[C@@H](C(=O)N[C@H](C(N)=O)[C@@H](C)O)NC(=O)[C@H]([C@@H](C)O)NC(=O)[C@H](CCCCN)NC(=O)[C@@H](Cc3c[nH]c4ccccc34)NC(=O)[C@H](Cc3ccc(O)c(I)c3)NC2=O)C[C@@H]2c3cccc4[nH]cc(c34)C[C@H]21 for UniProt:Q9UKP6.
Reply: 1510

Task item: Identify the measured Ki of CCCN1C[C@H](CSCC(=O)N[C@H](Cc2ccccc2)C(=O)NCCOCCOCC(=O)N[C@H](Cc2ccccc2)C(=O)N[C@H]2CSSC[C@@H](C(=O)N[C@H](C(N)=O)[C@@H](C)O)NC(=O)[C@H](C(C)C)NC(=O)[C@H](CCCCN)NC(=O)[C@@H](Cc3c[nH]c4ccccc34)NC(=O)[C@H](Cc3ccc(O)c(I)c3)NC2=O)C[C@@H]2c3cccc4[nH]cc(c34)C[C@H]21 for UniProt:Q9UKP6.
Reply: 83.7

Task item: Identify the measured Ki of CCCN1C[C@H](CSCC(=O)N[C@H](Cc2ccccc2)C(=O)N[C@H]2CSSC[C@@H](C(=O)N[C@H](C(N)=O)[C@@H](C)O)NC(=O)[C@H]([C@@H](C)O)NC(=O)[C@H](CCCCN)NC(=O)[C@@H](Cc3c[nH]c4ccccc34)NC(=O)[C@H](Cc3ccc(O)c(I)c3)NC2=O)C[C@@H]2c3cccc4[nH]cc(c34)C[C@H]21 for UniProt:Q9UKP6.
Reply: 676

More entries:
Task item: Identify the measured Ki of CCCN1C[C@H](CSCC(=O)NCCCC[C@@H](NC(=O)CSC[C@@H]2C[C@@H]3c4cccc5[nH]cc(c45)C[C@H]3N(CCC)C2)C(=O)N[C@H]2CSSC[C@@H](C(=O)N[C@H](C(N)=O)[C@@H](C)O)NC(=O)[C@H](CC)NC(=O)[C@H](CCCCN)NC(=O)[C@@H](Cc3c[nH]c4ccccc34)NC(=O)[C@H](Cc3ccc(O)cc3)NC2=O)C[C@@H]2c3cccc4[nH]cc(c34)C[C@H]21 for UniProt:Q9UKP6.
Reply: 509
